# tgt: Helios (Homo sapiens, UniProt Q96SW2+Q9UKS7)
# Construct: fluorescently labelled antibodies against Helios and Ikaros; endogenous in cells; host or cells: Jurkat cells
# Sequence (Q9UKS7 whole entry): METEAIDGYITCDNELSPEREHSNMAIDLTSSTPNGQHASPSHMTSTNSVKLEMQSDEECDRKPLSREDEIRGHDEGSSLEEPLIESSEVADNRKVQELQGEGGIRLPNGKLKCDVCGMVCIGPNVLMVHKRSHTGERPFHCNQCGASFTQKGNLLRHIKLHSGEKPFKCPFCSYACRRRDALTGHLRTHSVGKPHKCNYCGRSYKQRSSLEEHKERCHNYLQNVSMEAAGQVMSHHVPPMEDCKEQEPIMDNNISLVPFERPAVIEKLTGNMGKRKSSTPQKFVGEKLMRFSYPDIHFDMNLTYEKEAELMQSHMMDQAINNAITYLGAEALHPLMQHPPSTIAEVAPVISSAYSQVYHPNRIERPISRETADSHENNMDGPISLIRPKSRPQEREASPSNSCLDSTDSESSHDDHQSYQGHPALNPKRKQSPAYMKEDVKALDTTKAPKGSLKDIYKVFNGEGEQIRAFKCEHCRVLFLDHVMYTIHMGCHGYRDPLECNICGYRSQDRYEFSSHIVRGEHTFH
# Sequence (Q96SW2 whole entry): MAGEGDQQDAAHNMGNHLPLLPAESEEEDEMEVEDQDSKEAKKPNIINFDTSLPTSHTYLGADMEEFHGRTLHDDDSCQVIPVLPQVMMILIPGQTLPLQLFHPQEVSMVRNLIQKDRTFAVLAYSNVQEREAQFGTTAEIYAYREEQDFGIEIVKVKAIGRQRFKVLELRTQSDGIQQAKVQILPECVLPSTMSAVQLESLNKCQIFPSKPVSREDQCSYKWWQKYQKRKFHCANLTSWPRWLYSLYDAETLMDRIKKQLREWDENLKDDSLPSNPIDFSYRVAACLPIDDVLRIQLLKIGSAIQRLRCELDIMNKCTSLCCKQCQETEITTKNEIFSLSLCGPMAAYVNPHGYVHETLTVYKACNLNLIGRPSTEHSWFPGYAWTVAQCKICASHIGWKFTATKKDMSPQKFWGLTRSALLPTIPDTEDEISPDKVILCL
# Sequence (Q16531 whole entry partner): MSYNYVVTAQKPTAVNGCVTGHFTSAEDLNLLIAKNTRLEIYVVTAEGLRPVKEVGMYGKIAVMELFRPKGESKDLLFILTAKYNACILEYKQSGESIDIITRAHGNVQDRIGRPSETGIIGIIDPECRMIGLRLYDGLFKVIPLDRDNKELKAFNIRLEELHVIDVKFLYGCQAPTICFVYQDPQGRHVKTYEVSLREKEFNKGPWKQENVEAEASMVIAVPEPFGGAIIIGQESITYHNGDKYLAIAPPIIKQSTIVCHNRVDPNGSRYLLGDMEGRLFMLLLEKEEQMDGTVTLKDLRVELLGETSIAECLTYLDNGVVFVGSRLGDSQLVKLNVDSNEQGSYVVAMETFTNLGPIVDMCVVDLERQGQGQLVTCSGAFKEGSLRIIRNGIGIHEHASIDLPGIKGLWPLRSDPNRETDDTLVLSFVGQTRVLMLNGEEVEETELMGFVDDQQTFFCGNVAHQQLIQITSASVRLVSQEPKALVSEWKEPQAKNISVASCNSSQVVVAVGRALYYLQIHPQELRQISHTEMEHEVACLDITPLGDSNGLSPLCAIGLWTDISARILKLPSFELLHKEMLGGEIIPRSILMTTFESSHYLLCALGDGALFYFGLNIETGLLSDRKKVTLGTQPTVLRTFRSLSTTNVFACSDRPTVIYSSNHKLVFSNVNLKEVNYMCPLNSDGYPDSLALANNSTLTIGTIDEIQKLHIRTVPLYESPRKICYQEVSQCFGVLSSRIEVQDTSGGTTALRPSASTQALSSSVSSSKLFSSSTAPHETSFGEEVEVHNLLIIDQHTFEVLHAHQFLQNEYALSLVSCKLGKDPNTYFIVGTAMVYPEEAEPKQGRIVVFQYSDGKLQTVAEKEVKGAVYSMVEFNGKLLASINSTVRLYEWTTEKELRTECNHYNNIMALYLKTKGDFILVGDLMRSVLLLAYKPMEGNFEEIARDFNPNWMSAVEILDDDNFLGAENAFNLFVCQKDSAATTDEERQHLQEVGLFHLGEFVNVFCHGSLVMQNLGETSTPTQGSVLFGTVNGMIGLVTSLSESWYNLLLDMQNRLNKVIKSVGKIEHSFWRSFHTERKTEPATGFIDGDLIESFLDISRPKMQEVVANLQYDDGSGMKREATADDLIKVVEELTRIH
# assay notes: Helios Cellular Degradation Assay (flow cytometry, Helios-PE antibody staining, 72 h)
# Type: cell-based
# measurement setup: Jurkat cells, 72 h incubation, flow cytometry
# Description: Helios Cellular Degradation Assay Jurkat cells were plated at 80,000 cells/well in 40 μL RPMI+10% FBS in a 384 well cell culture plate prior to using acoustic dispensing technology for adding compound of interest. Cell cultures were incubated for 72 h at 37° C. and 5% CO2. […] Stained cells were resuspended in 25 μL of flow cytometry staining buffer (PBS+0.2% BSA) and analyzed using an Intellicyt Ique Plus flow cytometer. […]
Response field label takes fulfilled when DC50 is strictly below 40 nM and not fulfilled in all other cases.

[
  {
    "compound": "CN(Cc1ccnc(-c2ccc3c(c2)CN(C2CCC(=O)NC2=O)C3=O)c1)Cc1cnc2ccccc2n1 (stereo not shown)",
    "category label": "not fulfilled"
  },
  {
    "compound": "CN1C[C@@H]2CN(Cc3ccnc(-c4ccc5c(c4)CN(C4CCC(=O)NC4=O)C5=O)c3)C[C@@H]2C1 (stereo partly shown)",
    "category label": "not fulfilled"
  },
  {
    "compound": "C[C@H]1CCCN(Cc2ccnc(-c3ccc4c(c3)CN(C3CCC(=O)NC3=O)C4=O)c2)C1 (stereo partly shown)",
    "category label": "not fulfilled"
  },
  {
    "compound": "CC1(C)CCN(Cc2ccnc(-c3ccc4c(c3)CN(C3CCC(=O)NC3=O)C4=O)c2)C1 (stereo not shown)",
    "category label": "fulfilled"
  },
  {
    "compound": "N#CCNCc1ccnc(-c2ccc3c(c2)CN(C2CCC(=O)NC2=O)C3=O)c1 (stereo not shown)",
    "category label": "not fulfilled"
  },
  {
    "compound": "O=C1CCC(N2Cc3cc(-c4cc(CN5CCN(c6cnccn6)CC5)ccn4)ccc3C2=O)C(=O)N1 (stereo not shown)",
    "category label": "not fulfilled"
  },
  {
    "compound": "CN1CCCN(Cc2ccnc(-c3ccc4c(c3)CN(C3CCC(=O)NC3=O)C4=O)c2)CC1 (stereo not shown)",
    "category label": "not fulfilled"
  },
  {
    "compound": "C[C@H](c1ccccc1)N(C)Cc1ccnc(-c2ccc3c(c2)CN(C2CCC(=O)NC2=O)C3=O)c1 (stereo partly shown)",
    "category label": "not fulfilled"
  },
  {
    "compound": "C[C@H]1CCN(Cc2ccnc(-c3ccc4c(c3)CN(C3CCC(=O)NC3=O)C4=O)c2)C1 (stereo partly shown)",
    "category label": "fulfilled"
  },
  {
    "compound": "O=C1CCC(N2Cc3cc(-c4cc(CNCC5CCCCC5)ccn4)ccc3C2=O)C(=O)N1 (stereo not shown)",
    "category label": "fulfilled"
  },
  {
    "compound": "C[C@@H]1CCCN1Cc1ccnc(-c2ccc3c(c2)CN(C2CCC(=O)NC2=O)C3=O)c1 (stereo partly shown)",
    "category label": "fulfilled"
  },
  {
    "compound": "COC1CN(Cc2ccnc(-c3ccc4c(c3)CN(C3CCC(=O)NC3=O)C4=O)c2)C1 (stereo not shown)",
    "category label": "not fulfilled"
  },
  {
    "compound": "Cc1ccc(S(=O)(=O)C2CCN(Cc3ccnc(-c4ccc5c(c4)CN(C4CCC(=O)NC4=O)C5=O)c3)CC2)cc1 (stereo not shown)",
    "category label": "not fulfilled"
  },
  {
    "compound": "O=C1CCC(N2Cc3cc(-c4cc(CNCCc5ccc(Cl)cc5)ccn4)ccc3C2=O)C(=O)N1 (stereo not shown)",
    "category label": "fulfilled"
  },
  {
    "compound": "CN(Cc1ccnc(-c2ccc3c(c2)CN(C2CCC(=O)NC2=O)C3=O)c1)CC1CCOC1 (stereo not shown)",
    "category label": "not fulfilled"
  },
  {
    "compound": "CC1CCN1Cc1ccnc(-c2ccc3c(c2)CN(C2CCC(=O)NC2=O)C3=O)c1 (stereo not shown)",
    "category label": "fulfilled"
  }
]

###

# tgt: Helios (Homo sapiens, UniProt Q96SW2+Q9UKS7)
# Construct: fluorescently labelled antibodies against Helios and Ikaros; endogenous in cells; host or cells: Jurkat cells
# assay notes: Helios Cellular Degradation Assay (flow cytometry, Helios-PE antibody staining, 72 h)
# Type: cell-based
# measurement setup: Jurkat, Jurkat cells, 72 h incubation, flow cytometry; read-out: Helios Dmax
# Method: Helios Cellular Degradation Assay Jurkat cells were plated at 80,000 cells/well in 40 μL RPMI+10% FBS in a 384 well cell culture plate prior to using acoustic dispensing technology for adding compound of interest. Cell cultures were incubated for 72 h at 37° C. and 5% CO2. […] Stained cells were resuspended in 25 μL of flow cytometry staining buffer (PBS+0.2% BSA) and analyzed using an Intellicyt Ique Plus flow cytometer. […]
Response field label takes criterion met when Dmax is strictly below 80% and criterion not met in all other cases.

[
  {
    "compound": "CN1CCN(Cc2ccnc(-c3ccc4c(c3)CN(C3CCC(=O)NC3=O)C4=O)c2)CC1 (centres unmarked) [Example 35]",
    "category label": "criterion met"
  },
  {
    "compound": "CCCCNCc1ccnc(-c2ccc3c(c2)CN(C2CCC(=O)NC2=O)C3=O)c1 (centres unmarked) [Example 61]",
    "category label": "criterion not met"
  },
  {
    "compound": "CN(Cc1ccnc(-c2ccc3c(c2)CN(C2CCC(=O)NC2=O)C3=O)c1)Cc1ccc2ccccc2c1 (centres unmarked) [Example 162]",
    "category label": "criterion met"
  },
  {
    "compound": "CNCc1ccnc(-c2ccc3c(c2)CN(C2CCC(=O)NC2=O)C3=O)c1 (centres unmarked) [Example 145]",
    "category label": "criterion not met"
  },
  {
    "compound": "CN(C)[C@@H]1CCN(Cc2ccnc(-c3ccc4c(c3)CN(C3CCC(=O)NC3=O)C4=O)c2)C1 (some centres unmarked) [Example 45]",
    "category label": "criterion met"
  },
  {
    "compound": "Cc1cccc(CNCc2ccnc(-c3ccc4c(c3)CN(C3CCC(=O)NC3=O)C4=O)c2)c1 (centres unmarked) [Example 57]",
    "category label": "criterion met"
  },
  {
    "compound": "C[C@@H]1CCC[C@H](C)N1Cc1ccnc(-c2ccc3c(c2)CN(C2CCC(=O)NC2=O)C3=O)c1 (some centres unmarked) [Example 120]",
    "category label": "criterion not met"
  }
]

###

# tgt: Helios (Homo sapiens, UniProt Q96SW2+Q9UKS7)
# Construct: fluorescently labelled antibodies against Helios and Ikaros; endogenous in cells; host or cells: Jurkat cells
# assay notes: Helios Cellular Degradation Assay (flow cytometry, Helios-PE antibody staining, 72 h)
# Format: cell-based
# measurement setup: Jurkat, Jurkat cells, 72 h incubation, flow cytometry; read-out: Helios Dmax
Response field label takes MET when Dmax is strictly below 80% and NOT MET in all other cases.

[
  {
    "compound": "COc1ccc(CCNCc2ccnc(-c3ccc4c(c3)CN(C3CCC(=O)NC3=O)C4=O)c2)cc1 (centres unmarked)",
    "category label": "NOT MET"
  },
  {
    "compound": "CCCN(C)Cc1ccnc(-c2ccc3c(c2)CN(C2CCC(=O)NC2=O)C3=O)c1 (centres unmarked)",
    "category label": "NOT MET"
  },
  {
    "compound": "O=C1CCC(N2Cc3cc(-c4cc(CNCC5CCCCC5)ccn4)ccc3C2=O)C(=O)N1 (centres unmarked)",
    "category label": "NOT MET"
  },
  {
    "compound": "CC1CCN1Cc1ccnc(-c2ccc3c(c2)CN(C2CCC(=O)NC2=O)C3=O)c1 (centres unmarked)",
    "category label": "NOT MET"
  },
  {
    "compound": "CN(Cc1cccc(OC(F)(F)F)c1)Cc1ccnc(-c2ccc3c(c2)CN(C2CCC(=O)NC2=O)C3=O)c1 (centres unmarked)",
    "category label": "MET"
  },
  {
    "compound": "C[C@@H](c1ccccc1)N(C)Cc1ccnc(-c2ccc3c(c2)CN(C2CCC(=O)NC2=O)C3=O)c1 (some centres unmarked)",
    "category label": "MET"
  },
  {
    "compound": "O=C1CCC(N2Cc3cc(-c4cc(CNC5CCCCC5)ccn4)ccc3C2=O)C(=O)N1 (centres unmarked)",
    "category label": "NOT MET"
  }
]

###

# tgt: Helios (Homo sapiens, UniProt Q96SW2+Q9UKS7)
# Construct: fluorescently labelled antibodies against Helios and Ikaros; endogenous in cells; host or cells: Jurkat cells
# assay notes: Helios Cellular Degradation Assay (flow cytometry, Helios-PE antibody staining, 72 h)
# Type: cell-based
# measurement setup: Jurkat, Jurkat cells, 72 h incubation, flow cytometry; read-out: Helios Dmax

[
  {
    "compound": "O=C1CCC(N2Cc3cc(-c4cc(CNCCCn5ccnc5)ccn4)ccc3C2=O)C(=O)N1 (stereo not shown)",
    "tgt": "Helios (Homo sapiens, UniProt Q96SW2+Q9UKS7)",
    "Dmax / %": 81
  },
  {
    "compound": "C[C@@H]1CCCN(Cc2ccnc(-c3ccc4c(c3)CN(C3CCC(=O)NC3=O)C4=O)c2)C1 (stereo partly shown)",
    "tgt": "Helios (Homo sapiens, UniProt Q96SW2+Q9UKS7)",
    "Dmax / %": 94
  },
  {
    "compound": "O=C1CCC(N2Cc3cc(-c4cc(CN5CCc6ccccc6C5)ccn4)ccc3C2=O)C(=O)N1 (stereo not shown)",
    "tgt": "Helios (Homo sapiens, UniProt Q96SW2+Q9UKS7)",
    "Dmax / %": 58
  },
  {
    "compound": "O=C1CCC(N2Cc3cc(-c4cc(CNCc5csc(-c6ccccc6)n5)ccn4)ccc3C2=O)C(=O)N1 (stereo not shown)",
    "tgt": "Helios (Homo sapiens, UniProt Q96SW2+Q9UKS7)",
    "Dmax / %": 71
  }
]

Origin of the recorded values: patent US11548870B2
